The measured values listed here are drawn from the RNAGym collection of RNA variant scans (doi:10.7554/elife.80360).

B1: Twister Ribozyme (parent)
chain: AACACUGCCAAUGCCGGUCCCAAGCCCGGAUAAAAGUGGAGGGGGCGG

Variants of: B1
Assay: self-cleavage, relative activity (ratio to wild type); higher = more cleavage; co-transcriptional
recordedEndpoint: self-cleavage
Form: value (number only, do not type unit).

Query: Which self-cleavage is listed for C27G A35U ?
Reply: 0.0981

Query: Which self-cleavage is listed for G13C C14U ?
Reply: 0.408

Query: Which self-cleavage is listed for C3G G42U ?
Reply: 0.118

Query: Which self-cleavage is listed for A2U C15U ?
Reply: 0.531

Query: Which self-cleavage is listed for A32U G41U ?
Reply: 0.659

Query: Which self-cleavage is listed for C9G A23G ?
Reply: 0.0809

Query: Which self-cleavage is listed for A4U A30G ?
Reply: 0.176

Query: Which self-cleavage is listed for G39C G42U ?
Reply: 0.144

Query: Which self-cleavage is listed for A10C G28C ?
Reply: 0.822
